Listed here: items and their measured T/C.
Tested on: L1210 leukemia ip in BDF1 mice, survival T/C
Assay: NCI In Vivo Anticancer Drug Screen. Data for tumor model L1210 Leukemia (intraperitoneal) in B6D2F1 (BDF1) mice
Details: endpoint: mean survival time; dose: 100.0 mg/kg/injection; schedule: Q04DX003 (ip); vehicle: Klucel (hydroxypropylcellulose) (HPC); higher = longer survival
Toxic doses and inconclusive results are not listed.

O=[N+]([O-])c1ccc(Oc2ccc(Cl)cc2)cc1 ... 94 % of control

Look at this molecule and give its reported T/C. COC(=O)c1ncn(/C=C/c2ccccc2)c1C(=O)O
92 % of control

Look at this molecule and give its reported T/C. CCOc1ccccc1NC(=O)COc1ccc(Cl)cc1
90 % of control

Look at this molecule and give its reported T/C. CNc1cccc(C(=O)O)c1
113 % of control

Look at this molecule and give its reported T/C. CC(C)N(C(=O)COc1ccc(Cl)cc1)c1ccccc1
108 % of control

Look at this molecule and give its reported T/C. CCCCCCCCCCCCCCCC(=O)O
98 % of control

Look at this molecule and give its reported T/C. CC(C)CCCC(C)CCC1=C(O)c2ccccc2C(=O)C1=O (stereo unspecified)
101 % of control

Look at this molecule and give its reported T/C. C/C(CC(O)(C(F)(F)F)C(F)(F)F)=N\N1CCCCCC1
97 % of control

Look at this molecule and give its reported T/C. CC(c1ccccc1)n1ccnc1CO (stereo unspecified)
106 % of control

----------
System: L1210 leukemia ip in BDF1 mice, survival T/C
Assay: NCI In Vivo Anticancer Drug Screen. Data for tumor model L1210 Leukemia (intraperitoneal) in B6D2F1 (BDF1) mice
Details: endpoint: mean survival time; dose: 50.0 mg/kg/injection; schedule: Q01DX001 (ip); vehicle: saline
Inconclusive results and toxic doses are left out. Cut-off read from the data, not from the text of the source: active = T/C of 150% or more; inactive = T/C below 125%.
Form entry, call: pick from TRUE (active), FALSE (inactive)

These solved cases illustrate the format of a correct answer.
CSc1ccc(C(=O)Nc2c(N)ncnc2N)cc1 ... FALSE
Nc1c(Cl)cc(S(=O)(=O)O)cc1Br ... FALSE

Note: attention shifts to another entry.
For N=[N+]=CC(=O)CCC(NC(=O)C(CCC(=O)C=[N+]=N)NC(=O)CCC(N)C(=O)O)C(=O)O (stereo not drawn) , what call appears in the results of this test?
TRUE

----------
System: L1210 leukemia ip in BDF1 mice, survival T/C
Assay: NCI In Vivo Anticancer Drug Screen. Data for tumor model L1210 Leukemia (intraperitoneal) in B6D2F1 (BDF1) mice
Conditions: endpoint: mean survival time; dose: 200.0 mg/kg/injection; schedule: Q04DX003 (ip); vehicle: other; higher = longer survival
Inconclusive results and toxic doses are left out.
Listed here: items and their measured T/C.

Consider the reported T/C for these molecules:
CC(C(=O)O)C(NC(=O)OCc1ccccc1)C(=O)O (configuration not stated) ... 99 % of control
COc1cc2ccc(C(N)=O)cc2cc1OC ... 103 % of control
CC1CC=CCC1COC(OCC1CC=CCC1C)C1CC=CCC1C (configuration not stated) ... 98 % of control

Look at this molecule and give its reported T/C. CC(=O)OCC(OC(C)=O)C(OC(C)=O)C(OC(C)=O)C(/C=N/NC(N)=S)=N/NC(N)=S (configuration not stated)
103 % of control

Look at this molecule and give its reported T/C. CN(C)S(=O)(=O)c1ccc(NC(=O)C(Cl)(Cl)Cl)cc1
95 % of control

Look at this molecule and give its reported T/C. O=C(O)c1cccn1-c1ccccc1
101 % of control

Look at this molecule and give its reported T/C. CC(C)C1(C(C)C)NC(=O)NC1=O
98 % of control

----------
Tested on: L1210 leukemia ip in BDF1 mice, survival T/C
Experiment: NCI In Vivo Anticancer Drug Screen. Data for tumor model L1210 Leukemia (intraperitoneal) in B6D2F1 (BDF1) mice
Conditions: endpoint: mean survival time; dose: 400.0 mg/kg/injection; schedule: Q04DX003 (ip); vehicle: Klucel (hydroxypropylcellulose) (HPC); higher = longer survival
Inconclusive results and toxic doses are left out. Peptide text beside a SMILES is read from it. * marks the point of attachment. Cbz = O=C(OCc1ccccc1)*
Measure: T/C

For the record COc1ccccc1C(=O)N/N=C/c1ccccc1Cl , what value of T/C is listed for L1210 leukemia ip in BDF1 mice, survival T/C?
108 % of control

For the record SCc1c(Cl)c(Cl)c(Cl)c(Cl)c1Cl.[Hg] , what value of T/C is listed for L1210 leukemia ip in BDF1 mice, survival T/C?
93 % of control

For the record O=C(O)CNC(=O)CNC(=O)OCc1ccccc1 (Cbz-Gly-Gly-OH) , what value of T/C is listed for L1210 leukemia ip in BDF1 mice, survival T/C?
94 % of control

----------
Test system: L1210 leukemia ip in BDF1 mice, survival T/C
Experiment: NCI In Vivo Anticancer Drug Screen. Data for tumor model L1210 Leukemia (intraperitoneal) in B6D2F1 (BDF1) mice
Details: endpoint: mean survival time; dose: 400.0 mg/kg/injection; schedule: Q01DX001 (ip); vehicle: saline with Tween-80; higher = longer survival
Toxic doses and inconclusive results are not listed.
Listed here: items and their measured T/C.

Consider the reported T/C for these molecules:
O=C(O)c1cccc(CCc2cccnc2)c1 ... 93 % of control
COc1ccc(OC)c(NC(=O)c2ccc(Cl)c(Cl)c2)c1 ... 108 % of control
C1CCC2C(C1)CCCC2C(C1CCCC2CCCCC21)C1CCCC2CCCCC21 (configuration not stated) ... 90 % of control

Look at this molecule and give its reported T/C. CC(=O)OCC1OC(Oc2ccccc2)C(OC(C)=O)C(OC(C)=O)C1OC(C)=O (configuration not stated)
101 % of control

Look at this molecule and give its reported T/C. CS(=O)(=O)OC1C(N=[N+]=[N-])CN(C(=O)c2ccccc2)C1CCOC(=O)c1ccccc1 (configuration not stated)
96 % of control

Look at this molecule and give its reported T/C. Cc1nc2ccc(-c3ccccc3)cc2s1
103 % of control

Look at this molecule and give its reported T/C. CN(C)N=Nc1ccc(S(N)(=O)=O)cc1
105 % of control

Look at this molecule and give its reported T/C. CCC1=C/C(=C/c2cccc(OC)c2O)C(=O)S1
87 % of control

----------
Tested on: L1210 leukemia ip in BDF1 mice, survival T/C
Experiment: NCI In Vivo Anticancer Drug Screen. Data for tumor model L1210 Leukemia (intraperitoneal) in B6D2F1 (BDF1) mice
Conditions: endpoint: mean survival time; dose: 400.0 mg/kg/injection; schedule: Q01DX009 (ip); vehicle: saline with Tween-80; higher = longer survival
Inconclusive results and toxic doses are left out.
Measure: T/C

Cc1cncc(=O)[nH]1 ... 91 % of control

Look at this compound and give its reported T/C. CC(=O)OCC(CCC(C)C)=C(C)C
102 % of control

Look at this compound and give its reported T/C. CC1CCCC2C(=O)CCC(C(C)(C)O)C12C (centres undefined)
93 % of control

----------
System: L1210 leukemia ip in BDF1 mice, survival T/C
Assay: NCI In Vivo Anticancer Drug Screen. Data for tumor model L1210 Leukemia (intraperitoneal) in B6D2F1 (BDF1) mice
Conditions: endpoint: mean survival time; dose: 100.0 mg/kg/injection; schedule: Q04DX003 (ip); vehicle: saline with Tween-80; higher = longer survival
Inconclusive results and toxic doses are left out.
Measure: T/C

Consider the reported T/C for these compounds:
COc1cc(C(C)O)cc(OC)c1OC (centres undefined) ... 101 % of control
OC(C1CCCCN1)C12CC3CC(CC(C3)C1)C2 (centres undefined) ... 105 % of control
C=Cc1cnc(N)nc1-c1ccccc1 ... 90 % of control
CCCCCCCCCCCC(C)(O)CC (centres undefined) ... 95 % of control
O=C(/C=C/c1ccccc1)NC(=S)Nc1ccc(CCO)cc1 ... 102 % of control

Look at this compound and give its reported T/C. NC(=O)NC(NC(N)=O)C(Cl)(Cl)Cl
100 % of control

Look at this compound and give its reported T/C. Cc1c(Cl)cccc1NC(=O)Oc1ccc(Cl)cc1
93 % of control

Look at this compound and give its reported T/C. O=C(Nc1cccc2ccccc12)OCc1ccco1
105 % of control

Look at this compound and give its reported T/C. CN(C)Cc1cc(O)c(CN(C)C)cc1O
96 % of control

Look at this compound and give its reported T/C. COC(=O)C1C=CCC(C(=O)OC)C1 (centres undefined)
109 % of control

Look at this compound and give its reported T/C. CCCCCCCC/C=C\CCCCCCCC(=O)OCCCCC
93 % of control

Look at this compound and give its reported T/C. CC(=O)OCC1OC(OC2C(COC(C)=O)OC(Sc3ccccc3)C(OC(C)=O)C2OC(C)=O)C(OC(C)=O)C(OC(C)=O)C1OC(C)=O (centres undefined)
92 % of control

Look at this compound and give its reported T/C. O=C(O)Cc1ccc2c3c(ccc([N+](=O)[O-])c13)CC2
96 % of control

Look at this compound and give its reported T/C. Nc1ccc(C(=O)Oc2ccc([N+](=O)[O-])cc2)cc1
98 % of control

Look at this compound and give its reported T/C. O=c1ccnc([Se])[nH]1
92 % of control

Look at this compound and give its reported T/C. Cc1ccc(NC(=O)NCC2(C)CC(NC(=O)Nc3ccc(C)cc3)CC(C)(C)C2)cc1 (centres undefined)
91 % of control

Look at this compound and give its reported T/C. O=C(c1ccccc1)c1nonc1C(=O)c1ccccc1
97 % of control

Look at this compound and give its reported T/C. CN1C(=O)CC(NC(=O)OCc2ccccc2)C1=O (centres undefined)
95 % of control

Look at this compound and give its reported T/C. CCOC(=O)Cc1cnc(SC)nc1Cl
92 % of control
